- TARGET_OR_SYSTEM: rat FAAH (Rattus norvegicus, UniProt P97612)
- Sequence (P97612 1-579): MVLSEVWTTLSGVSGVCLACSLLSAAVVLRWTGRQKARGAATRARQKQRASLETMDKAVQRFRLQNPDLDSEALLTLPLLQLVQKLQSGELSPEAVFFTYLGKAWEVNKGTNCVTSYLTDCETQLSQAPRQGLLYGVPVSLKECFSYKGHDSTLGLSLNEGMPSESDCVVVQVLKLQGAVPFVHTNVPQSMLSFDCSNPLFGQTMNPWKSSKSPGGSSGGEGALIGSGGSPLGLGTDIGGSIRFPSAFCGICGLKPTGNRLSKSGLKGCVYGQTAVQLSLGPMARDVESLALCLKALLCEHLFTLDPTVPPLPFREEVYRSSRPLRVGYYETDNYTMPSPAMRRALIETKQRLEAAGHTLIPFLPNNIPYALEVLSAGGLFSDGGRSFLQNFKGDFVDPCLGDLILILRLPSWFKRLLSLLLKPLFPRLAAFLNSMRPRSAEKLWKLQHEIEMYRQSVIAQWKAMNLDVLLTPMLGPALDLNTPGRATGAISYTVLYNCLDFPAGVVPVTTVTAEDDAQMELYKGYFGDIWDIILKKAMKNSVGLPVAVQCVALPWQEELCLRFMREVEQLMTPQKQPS
pIC50: −log10 of the molar value.
MEASURED_PROPERTY: pIC50

INSERT INTO measurements (compound, measured_property, result) VALUES
  ('CN(C(=O)n1cnc(-c2ccc[n+]([O-])c2)c1)C1CCCCC1 [BIA 10-2474]', 'pIC50', '≤ 6.00');
